Origin of measurements: patent US9611303B2

experiment: Purification of LATM2 with 2-iminobiotin-agarose; format: binding
OBSERVED_PROPERTY: binding to 2-iminobiotin-agarose

- TM2 A66R-V113R: TM2 with 66th alanine and 113th valine replaced with arginine (protein) MSDVQSSLTGTWYNELNSKMELTANKDGTLTGKYLSKVGDVYVPYPLSGRYNLQPPAGQGVALGWRVSWENSKIHSATTWSGQFFSESSPVILTQWLLSSSTARGDVWESTLRGNDSFTKTAPTEQQIAHAQLHCRAPRLK: did not bind
- TM2 S36A-D116A: TM2 with 36th serine and 116th aspartic acid replaced with alanine; SEQ ID NO: 20 (protein, Synthetic TM2 S36A-D116A) MSDVQSSLTGTWYNELNSKMELTANKDGTLTGKYLAKVGDVYVPYPLSGRYNLQPPAGQGVALGWAVSWENSKIHSATTWSGQFFSESSPVILTQWLLSSSTARGDVWESTLVGNASFTKTAPTEQQIAHAQLHCRAPRLK: did not bind
